tgt: T1, human GIP receptor (human) (UniProt P48546)
T1 sequence (looked up): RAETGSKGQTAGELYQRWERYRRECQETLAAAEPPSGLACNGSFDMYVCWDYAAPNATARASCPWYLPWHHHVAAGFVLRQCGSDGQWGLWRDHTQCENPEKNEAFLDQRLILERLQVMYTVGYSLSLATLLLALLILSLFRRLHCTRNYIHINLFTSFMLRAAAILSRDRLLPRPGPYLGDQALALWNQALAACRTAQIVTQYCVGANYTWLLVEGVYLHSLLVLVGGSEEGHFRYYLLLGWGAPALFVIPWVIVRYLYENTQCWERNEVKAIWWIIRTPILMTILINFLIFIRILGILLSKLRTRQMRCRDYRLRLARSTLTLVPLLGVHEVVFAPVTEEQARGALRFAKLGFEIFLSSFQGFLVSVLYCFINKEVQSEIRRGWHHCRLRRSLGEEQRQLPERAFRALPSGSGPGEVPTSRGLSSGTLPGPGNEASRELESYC
experimentalProtocol: cell-based or functional assay
metric: cAMP Rel EC50, nM (1% HSA)

Incoming: Given YXQGTFTSDFSXXLDXKAQXAFIEYLLEGGPSSGAPPPGGSEE (Aib, Orn, alpha-methyl-Leu, lipidated Lys, C-terminal amide; synthetic construct; SITE 2: note = 2-Aminoisobutyric Acid; SITE 12: note = L-ornithine; SITE 13: note = alpha-methyl-leucine; SITE 16: note = L-ornithine; SITE 17: note = Lysine is chemically modified through conjugation of the epsilon-amino group of the Lysine side chain with (gamma-Glu)2-CO-(CH2)) [Example 1048] , state its recorded cAMP Rel EC50, nM (1% HSA).
Outgoing: 108 nM

Incoming: Which cAMP Rel EC50, nM (1% HSA) is listed for YXQGTXTSDYSILLDXKAQXAFIEYLLEGGPSSGAPPPS (synthetic construct; SITE 2: note = 2-Aminoisobutyric Acid; SITE 6: note = alpha-methyl-2-fluoro-L-phenylalanine; SITE 16: note = L-ornithine; SITE 17: note = Lysine is chemically modified through conjugation of the epsilon-amino group of the Lysine side chain with (2-[2-(2-Amino-ethoxy)-ethoxy]-ace)) [Example 427] ?
Outgoing: 4.25 nM

Incoming: Dear colleague, I am looking for the recorded cAMP Rel EC50, nM (1% HSA) of the following binder: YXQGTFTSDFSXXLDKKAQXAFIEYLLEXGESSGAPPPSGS (synthetic construct; SITE 2: note = 2-Aminoisobutyric Acid; SITE 12: note = L-ornithine; SITE 13: note = alpha-methyl-leucine; SITE 17: note = Lysine is chemically modified through conjugation of the epsilon-amino group of the Lysine side chain with (2-[2-(2-Amino-ethoxy)-ethoxy]-acetyl)2-(gamma-Glu)) [Example 179]
Outgoing: 21.3 nM

Incoming: State the recorded cAMP Rel EC50, nM (1% HSA) for this entry: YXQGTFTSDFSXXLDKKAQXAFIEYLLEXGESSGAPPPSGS (acylated; synthetic construct; SITE 2: note = 2-Aminoisobutyric Acid; SITE 12: note = L-ornithine; SITE 13: note = alpha-methyl-leucine; SITE 17: note = Lysine is chemically modified through conjugation of the epsilon-amino group of the Lysine side chain with (2-[2-(2-Amino-ethoxy)-ethoxy]-acetyl)-(gamma-Glu)) [Example 240]
Outgoing: 10.4 nM

Incoming: Which cAMP Rel EC50, nM (1% HSA) is listed for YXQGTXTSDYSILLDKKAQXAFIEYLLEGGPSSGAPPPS (synthetic construct; SITE 2: note = 2-Aminoisobutyric Acid; SITE 6: note = alpha-methyl-L-phenylalanine; SITE 17: note = Lysine is chemically modified through conjugation of the epsilon-amino group of the Lysine side chain with (2-[2-(2-Amino-ethoxy)-ethoxy]-acetyl)2-(gamma-Glu)-CO-(CH2 )16-CO2H; SI) [Example 419] ?
Outgoing: 9.47 nM

Incoming: Consider the binder shown here: YXQGTXTSDYSILLDKKAQXAFIEYLEEGGPSSGAPPPSEG (not fully specified; synthetic construct; SITE 2: note = 2-Aminoisobutyric Acid; SITE 6: note = alpha-methyl-2-fluoro-L-phenylalanine; SITE 17: note = Lysine is chemically modified through conjugation of the epsilon-amino group of the Lysine side chain with (2-[2-(2-Amino-ethoxy)-ethoxy]-acetyl)-(gamma-Glu)-CO-(CH2) 16-) [Example 398] What is its recorded cAMP Rel EC50, nM (1% HSA)?
Outgoing: 12.4 nM

Incoming: For the binder shown here, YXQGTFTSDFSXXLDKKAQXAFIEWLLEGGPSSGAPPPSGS (synthetic construct; SITE 2: note = 2-Aminoisobutyric Acid; SITE 12: note = L-ornithine; SITE 13: note = alpha-methyl-leucine; SITE 17: note = Lysine is chemically modified through conjugation of the epsilon-amino group of the Lysine side chain with (2-[2-(2-Amino-ethoxy)-ethoxy]-acetyl)-(gamma-Glu)) [Example 168] , give the reported cAMP Rel EC50, nM (1% HSA).
Outgoing: 31.9 nM

Incoming: Fill in the blank: the reported cAMP Rel EC50, nM (1% HSA) of YXQGTFTSDFSXXLDKKAQXAFIEWLLEGGSSSGAPPPSGS (synthetic construct; SITE 2: note = 2-Aminoisobutyric Acid; SITE 12: note = L-ornithine; SITE 13: note = alpha-methyl-leucine; SITE 17: note = Lysine is chemically modified through conjugation of the epsilon-amino group of the Lysine side chain with (2-[2-(2-Amino-ethoxy)-ethoxy]-acetyl)-(gamma-Glu)) [Example 173] is ____.
Outgoing: 49.9 nM

Incoming: Could you share which cAMP Rel EC50, nM (1% HSA) value was measured for YXQGTXTSDYXILLDKKAQXAFIEYLEEGGPSSGAPPPS (synthetic construct; SITE 2: note = 2-Aminoisobutyric Acid; SITE 6: note = alpha-methyl-L-phenylalanine; SITE 11: note = alpha-methyl-L-serine; SITE 17: note = Lysine is chemically modified through conjugation of the epsilon-amino group of the Lysine side chain with (2-[2-(2-Amino-ethoxy)-ethoxy]-ac)) [Example 393] ?
Outgoing: 12.4 nM

Incoming: // lookup cAMP Rel EC50, nM (1% HSA) for YXQGTFTSDXSXXLDXKAQXQFIEYLIAGGPSSGAPPPSGSEE (Lys acylated with (γGlu)2-C18 diacid; non-natural residues; C-amide; synthetic construct; SITE 2: note = 2-Aminoisobutyric Acid; SITE 10: note = 3-(4-Pyridyl)-L-alanine; SITE 12: note = L-ornithine; SITE 13: note = alpha-methyl-leucine; SITE 16: note = L-ornithine; SITE 17: note = Lysine is chemically modified through conjugation of the epsilon-amino group of the Lys) [Example 1000]
Outgoing: 15.5 nM

Incoming: Form field: reported cAMP Rel EC50, nM (1% HSA) of YXQGTFTSDFSKXLDKKAQXAFIEYLAAGGPSSGEPPPSGE (synthetic construct; SITE 2: note = 2-Aminoisobutyric Acid; SITE 13: note = alpha-methyl-leucine; SITE 17: note = Lysine is chemically modified through conjugation of the epsilon-amino group of the Lysine side chain with (epsilon-K)2-(gamma-Glu)-CO-(CH2)18-CO2H; SITE 20: note = 2-Aminoisobutyric Aci) [Example 405]
Outgoing: 32.1 nM

Incoming: Data request, read-out cAMP Rel EC50, nM (1% HSA), for YXQGTFTSDXSRXLDKKAQXAFIEYLIEXGESSGAPPPSGS (synthetic construct; SITE 2: note = 2-Aminoisobutyric Acid; SITE 10: note = 3-(4-Pyridyl)-L-alanine; SITE 13: note = alpha-methyl-leucine; SITE 17: note = Lysine is chemically modified through conjugation of the epsilon-amino group of the Lysine side chain with (2-[2-(2-Amino-ethoxy)-ethoxy]-acetyl)) [Example 187]
Outgoing: 15.6 nM
